These data points were gathered from ChEMBL document CHEMBL1909046.

Biological target: Cytochrome P450 2E1 (Homo sapiens, UniProt P05181); note: in other assays of this panel Not Active means under 50% inhibition at 10 µM
Sequence (P05181 whole entry): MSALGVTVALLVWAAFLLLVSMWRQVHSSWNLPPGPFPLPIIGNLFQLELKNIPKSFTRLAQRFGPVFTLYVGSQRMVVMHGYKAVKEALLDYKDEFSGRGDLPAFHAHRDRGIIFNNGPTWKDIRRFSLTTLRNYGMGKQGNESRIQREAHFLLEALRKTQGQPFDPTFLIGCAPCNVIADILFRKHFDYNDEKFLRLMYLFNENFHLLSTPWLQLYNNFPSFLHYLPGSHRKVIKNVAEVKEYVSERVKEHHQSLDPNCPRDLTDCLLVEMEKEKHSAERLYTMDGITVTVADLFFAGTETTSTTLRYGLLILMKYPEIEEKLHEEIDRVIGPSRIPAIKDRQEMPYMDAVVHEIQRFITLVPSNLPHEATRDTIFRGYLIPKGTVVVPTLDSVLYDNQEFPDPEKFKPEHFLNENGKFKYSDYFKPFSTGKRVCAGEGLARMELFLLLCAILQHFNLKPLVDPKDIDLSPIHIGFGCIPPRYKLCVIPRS
Settings: bti-tn-5b1-4
*1 amine or outer side, *2 acyl side, *3 side chain or, on linkers, in order; H or OH if unused. Where a SMILES comes first, the peptide text is derived from it. Bridges are numbered along the chain shown (N, C = ends). Roman numbers before positions name the chains, in order. [ ]: non-standard residue; d: D form. Actinocin(1to9) = Cc1c2oc3c(C)ccc(C(=O)[*:2])c3nc-2c(C(=O)[*:1])c(N)c1=O; NMeV = CN[C@H](C(=O)O)C(C)C; Sar = CNCC(=O)O
readout_type: IC50

Worked examples follow.
INSERT INTO assay_data (compound, assay_value) VALUES
  ('CC(C)C(Br)C(=O)NC(N)=O (stereo not drawn) [BROMISOVALUM]', 'Not Active'),
  ('CCCCc1oc2ccccc2c1C(=O)c1cc(I)c(OCCN(CC)CC)c(I)c1 [AMIODARONE]', 'Not Active'),
  ('Cc1c2oc3c(C)ccc(C(=O)N[C@@H]4C(=O)N[C@H](C(C)C)C(=O)N5CCC[C@H]5C(=O)N(C)CC(=O)N(C)[C@@H](C(C)C)C(=O)O[C@@H]4C)c3nc-2c(C(=O)N[C@@H]2C(=O)N[C@H](C(C)C)C(=O)N3CCC[C@H]3C(=O)N(C)CC(=O)N(C)[C@@H](C(C)C)C(=O)O[C@@H]2C)c(N)c1=O [DACTINOMYCIN] (I: T[dV]P[Sar][NMeV] / II: T[dV]P[Sar][NMeV]; ester I:1-I:C, II:1-II:C; linker I:N-II:N via Actinocin(1to9))', 'Not Active'),
  ('CCn1cc(C(=O)O)c(=O)c2cc(F)c(N3CCNCC3)cc21 [NORFLOXACIN]', 'Not Active'),
  ('COc1cc2nc(N3CCN(C(=O)C4COc5ccccc5O4)CC3)nc(N)c2cc1OC (stereo not drawn) [DOXAZOSIN]', 'Not Active');

Qu. Consider the compound O=c1[nH]c(=O)n([C@H]2C[C@H](O)[C@@H](CO)O2)cc1I [IDOXURIDINE] and give its recorded IC50.
Ans. Not Active

Qu. Consider the compound COCCc1ccc(OCC(O)CNC(C)C)cc1 (stereo not drawn) [METOPROLOL] and give its recorded IC50.
Ans. Not Active

Qu. Consider the compound CNCCc1ccccn1 [BETAHISTINE] and give its recorded IC50.
Ans. Not Active

* * *

Target: Cysteinyl leukotriene receptor 1 (Homo sapiens, UniProt Q9Y271); note: in other assays of this panel Not Active means under 50% inhibition at 10 µM
Sequence (Q9Y271 whole entry): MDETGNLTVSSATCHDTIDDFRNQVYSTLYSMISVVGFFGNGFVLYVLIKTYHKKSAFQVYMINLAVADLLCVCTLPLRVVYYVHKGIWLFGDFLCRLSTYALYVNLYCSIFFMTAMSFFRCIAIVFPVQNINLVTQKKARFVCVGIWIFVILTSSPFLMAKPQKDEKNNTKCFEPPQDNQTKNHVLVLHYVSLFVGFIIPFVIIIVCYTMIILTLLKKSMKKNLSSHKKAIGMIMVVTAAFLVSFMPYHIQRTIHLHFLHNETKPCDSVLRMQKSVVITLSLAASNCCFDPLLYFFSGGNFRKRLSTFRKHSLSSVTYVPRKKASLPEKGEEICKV
Format: cell membranes, CHO-K1, Membrane
Conditions: read-out: Ki
readout_type: Ki (µM)
Quick note: give the figure in µM, leave out the unit.

Qu. State, for Cysteinyl leukotriene receptor 1 (Homo sapiens, UniProt Q9Y271), measured Ki of the molecule listed here: CSc1ccc(/C=C2/C(C)=C(CC(=O)O)c3cc(F)ccc32)cc1 [SULINDAC SULFIDE]
Ans. 14.7

* * *

Target: UniProt:P41597
Sequence (P41597 whole entry): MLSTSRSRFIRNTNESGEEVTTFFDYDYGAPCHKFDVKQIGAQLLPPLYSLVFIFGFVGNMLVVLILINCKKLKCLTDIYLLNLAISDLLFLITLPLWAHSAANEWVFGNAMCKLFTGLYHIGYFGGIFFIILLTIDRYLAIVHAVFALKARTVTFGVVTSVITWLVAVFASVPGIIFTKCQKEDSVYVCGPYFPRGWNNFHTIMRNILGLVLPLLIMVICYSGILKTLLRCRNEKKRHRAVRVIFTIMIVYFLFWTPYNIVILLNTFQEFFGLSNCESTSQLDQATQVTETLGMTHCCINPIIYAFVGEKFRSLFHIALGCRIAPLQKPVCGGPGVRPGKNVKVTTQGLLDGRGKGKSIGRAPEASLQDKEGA
Assay type: cell membranes, CHO-K1, Membrane
Conditions: read-out: Ki
readout_type: Ki (µM)
Quick note: give the figure in µM, leave out the unit.

Qu. State, for UniProt:P41597, measured Ki of the molecule listed here: CCCCc1oc2ccccc2c1C(=O)c1cc(I)c(OCCN(CC)CC)c(I)c1
Ans. 4.28

* * *

Biological target: 3-hydroxy-3-methylglutaryl-coenzyme A reductase (Homo sapiens, UniProt P04035);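 note: enzyme inhibition assay of HMG-CoA reductase using radiolabeled [14C]HMG-CoA as substrate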; note: in other assays of this panel Not Active means under 50% inhibition at 10 µM
Sequence (P04035 whole entry): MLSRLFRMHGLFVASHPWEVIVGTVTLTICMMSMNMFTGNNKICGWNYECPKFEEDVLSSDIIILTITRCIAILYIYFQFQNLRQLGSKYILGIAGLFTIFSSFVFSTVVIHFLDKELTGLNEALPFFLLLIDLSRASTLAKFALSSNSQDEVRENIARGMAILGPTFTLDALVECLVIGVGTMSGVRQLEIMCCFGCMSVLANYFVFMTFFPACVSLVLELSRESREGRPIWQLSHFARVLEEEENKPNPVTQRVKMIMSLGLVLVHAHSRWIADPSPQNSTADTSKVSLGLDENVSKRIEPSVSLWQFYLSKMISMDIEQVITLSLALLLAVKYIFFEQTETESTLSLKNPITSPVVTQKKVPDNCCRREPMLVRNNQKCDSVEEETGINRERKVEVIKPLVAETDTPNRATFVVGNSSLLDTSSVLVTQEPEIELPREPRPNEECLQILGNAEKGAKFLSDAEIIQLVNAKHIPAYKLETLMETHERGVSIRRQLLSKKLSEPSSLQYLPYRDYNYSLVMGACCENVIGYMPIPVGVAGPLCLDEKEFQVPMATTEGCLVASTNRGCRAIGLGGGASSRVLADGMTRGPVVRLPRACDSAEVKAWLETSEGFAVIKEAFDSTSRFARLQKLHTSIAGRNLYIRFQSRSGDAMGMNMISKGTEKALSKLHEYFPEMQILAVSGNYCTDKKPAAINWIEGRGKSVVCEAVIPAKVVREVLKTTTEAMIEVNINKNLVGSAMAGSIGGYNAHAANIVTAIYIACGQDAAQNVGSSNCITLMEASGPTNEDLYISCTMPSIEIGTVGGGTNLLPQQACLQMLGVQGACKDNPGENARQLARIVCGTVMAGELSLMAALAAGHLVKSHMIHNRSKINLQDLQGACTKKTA
Parameters: species or system Escherichia coli
readout_type: IC50

Worked examples follow.
INSERT INTO assay_data (molecule, assay_value) VALUES
  ('CC(C)N1CCN(c2ccc(OCC3COC(Cn4cncn4)(c4ccc(Cl)cc4Cl)O3)cc2)CC1 (stereo not drawn)', 'Not Active'),
  ('COc1cc2c3cc1Oc1cc(ccc1O)C[C@@H]1c4c(cc(OC)c(O)c4Oc4ccc(cc4)C[C@@H]3N(C)CC2)CC[N+]1(C)C.[Cl-]', 'Not Active'),
  ('CCOc1ccc(NC(C)=O)cc1', 'Not Active'),
  ('CCCN1C[C@H](CSC)C[C@@H]2c3cccc4[nH]cc(c34)C[C@H]21 [PERGOLIDE]', 'Not Active'),
  ('Cc1c(C)c2c(c(C)c1O)CC[C@@](C)(CCC[C@H](C)CCC[C@H](C)CCCC(C)C)O2', 'Not Active');

Qu. State, for 3-hydroxy-3-methylglutaryl-coenzyme A reductase (Homo sapiens, UniProt P04035), measured IC50 of the molecule listed here: C[C@@H]1CN(c2c(F)c(N)c3c(=O)c(C(=O)O)cn(C4CC4)c3c2F)C[C@H](C)N1
Ans. Not Active

Qu. State, for 3-hydroxy-3-methylglutaryl-coenzyme A reductase (Homo sapiens, UniProt P04035), measured IC50 of the molecule listed here: Nc1ncn([C@@H]2O[C@H](CO)[C@@H](O)[C@H]2O)c(=O)n1
Ans. Not Active

Qu. State, for 3-hydroxy-3-methylglutaryl-coenzyme A reductase (Homo sapiens, UniProt P04035), measured IC50 of the molecule listed here: CCCCN1CCCC[C@H]1C(=O)Nc1c(C)cccc1C
Ans. Not Active

* * *

Test: DRUGMATRIX: Serotonin (5-Hydroxytryptamine) 5-HT3 radioligand binding (ligand: [3H] GR-65630)
Type: cell membranes, Membrane
Details: hek293; Not Active = under 50% inhibition at 10 µM; read-out: IC50
readout_type: IC50

Qu. Consider the molecule CN(C)CCCN1c2ccccc2Sc2ccc(Cl)cc21 and give its recorded IC50.
Ans. 7.37 µM

* * *

Biological target: Histamine H2 receptor (Homo sapiens); note: in other assays of this panel Not Active means under 50% inhibition at 10 µM
Sequence (P25021 whole entry): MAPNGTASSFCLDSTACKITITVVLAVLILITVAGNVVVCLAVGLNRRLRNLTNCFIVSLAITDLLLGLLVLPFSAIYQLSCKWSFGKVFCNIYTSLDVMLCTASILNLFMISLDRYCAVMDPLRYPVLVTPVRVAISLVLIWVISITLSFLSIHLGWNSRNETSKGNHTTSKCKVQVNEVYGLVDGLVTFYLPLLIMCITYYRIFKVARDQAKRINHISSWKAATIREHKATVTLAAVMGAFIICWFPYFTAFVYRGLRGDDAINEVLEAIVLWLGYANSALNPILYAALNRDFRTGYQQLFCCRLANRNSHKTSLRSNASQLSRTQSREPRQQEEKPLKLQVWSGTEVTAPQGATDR
Assay type: cell membranes, CHO-K1, Membrane
Details: cho-k1
readout_type: Ki

INSERT INTO measurements (substance, measurement_target, assay_value) VALUES
  ('LEAD (II) ACETATE', 'Histamine H2 receptor (Homo sapiens)', 'Not Active'),
  ('CADMIUM ACETATE', 'Histamine H2 receptor (Homo sapiens)', 'Not Active'),
  ('LIPOPOLYSACCHARIDE E. COLI O55:B5', 'Histamine H2 receptor (Homo sapiens)', 'Not Active'),
  ('SODIUM NITROPRUSSIDE', 'Histamine H2 receptor (Homo sapiens)', 'Not Active');

* * *

Target: Kappa-type opioid receptor (Homo sapiens, UniProt P41145)
Sequence (P41145 whole entry): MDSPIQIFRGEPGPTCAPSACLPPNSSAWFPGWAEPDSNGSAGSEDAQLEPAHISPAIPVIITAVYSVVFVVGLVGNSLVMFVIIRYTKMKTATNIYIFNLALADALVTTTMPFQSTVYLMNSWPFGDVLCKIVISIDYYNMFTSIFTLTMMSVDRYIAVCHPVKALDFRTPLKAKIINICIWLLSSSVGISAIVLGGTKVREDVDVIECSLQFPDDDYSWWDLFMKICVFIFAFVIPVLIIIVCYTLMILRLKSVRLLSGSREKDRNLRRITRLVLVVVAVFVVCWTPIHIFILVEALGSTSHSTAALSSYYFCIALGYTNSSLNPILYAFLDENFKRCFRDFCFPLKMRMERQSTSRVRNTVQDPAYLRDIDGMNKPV
Test: DRUGMATRIX: Opiate kappa (OP2, KOP) radioligand binding (ligand: [3H] Diprenorphine)
Type: cell membranes, HEK293, Membrane
Conditions: hek293; Not Active = under 50% inhibition at 10 µM
readout_type: IC50

INSERT INTO measurements (compound, assay_value) VALUES
  ('CCCC1O[C@@H]2C[C@H]3[C@@H]4CCC5=CC(=O)C=C[C@]5(C)[C@H]4[C@@H](O)C[C@]3(C)[C@]2(C(=O)CO)O1 (stereo partly drawn) [BUDESONIDE]', 'Not Active'),
  ('C[C@]12CCC(=O)C=C1CC[C@@H]1[C@@H]2CC[C@@]2(C)[C@H]1CC[C@]2(C)O', 'Not Active'),
  ('OCCN(CCO)c1nc(N2CCCCC2)c2nc(N(CCO)CCO)nc(N3CCCCC3)c2n1', 'Not Active');

* * *

Experiment: DRUGMATRIX: Glutamate, NMDA, Agonism radioligand binding (ligand: [3H] CGP-39653)
Assay type: cell membranes, Rattus norvegicus, Wistar, Cerebral cortex, Membrane
Details: Not Active = under 50% inhibition at 10 µM
readout_type: Ki

INSERT INTO assay_data (substance, assay_value) VALUES
  ('LEAD (II) ACETATE', 'Not Active'),
  ('LIPOPOLYSACCHARIDE E. COLI O55:B5', 'Not Active'),
  ('SODIUM NITROPRUSSIDE', 'Not Active'),
  ('CADMIUM ACETATE', 'Not Active');

* * *

Assay: DRUGMATRIX: Calcium Channel Type L, Phenylalkylamine radioligand binding (ligand: [3H] (-)-Desmethoxyverapamil (D-888))
Type: cell membranes, Rattus norvegicus, Wistar, Brain, Membrane
Conditions: Not Active = under 50% inhibition at 10 µM; read-out: Ki
pKi listing for selected compounds.
FYI, pKi means -log10 of a concentration in mol per litre.

INSERT INTO results (compound, readout_type, assay_value) VALUES
  ('O=C(CCCN1CC=C(n2c(=O)[nH]c3ccccc32)CC1)c1ccc(F)cc1 [DROPERIDOL]', 'pKi', 5.39),
  ('Cc1ccc(N(CC2=NCCN2)c2cccc(O)c2)cc1 [PHENTOLAMINE]', 'pKi', 6.14),
  ('CC(C)(C)NC(=O)[C@@H]1C[C@@H]2CCCC[C@@H]2CN1C[C@@H](O)[C@H](Cc1ccccc1)NC(=O)[C@H](CC(N)=O)NC(=O)c1ccc2ccccc2n1', 'pKi', 5.18),
  ('CN(C)CCCN1c2ccccc2Sc2ccc(Cl)cc21 [CHLORPROMAZINE]', 'pKi', 5.83),
  ('CN(C)CCCN1c2ccccc2Sc2ccccc21 [PROMAZINE]', 'pKi', 5.94);

Qu. Consider the compound C1CCC(C(CC2CCCCN2)C2CCCCC2)CC1 (stereo not drawn) [PERHEXILINE] and give its recorded pKi.
Ans. 5.88

Qu. Consider the compound CC(C)N1CCN(c2ccc(OCC3COC(Cn4cncn4)(c4ccc(Cl)cc4Cl)O3)cc2)CC1 (stereo not drawn) [TERCONAZOLE] and give its recorded pKi.
Ans. 5.47

Qu. Consider the compound CCCN1C[C@H](CSC)C[C@@H]2c3cccc4[nH]cc(c34)C[C@H]21 [PERGOLIDE] and give its recorded pKi.
Ans. 6.05
